Biological target: T1, His-mouse LIGHT (mouse)
T1 construct: also called His-musLIGHT
T1 chain: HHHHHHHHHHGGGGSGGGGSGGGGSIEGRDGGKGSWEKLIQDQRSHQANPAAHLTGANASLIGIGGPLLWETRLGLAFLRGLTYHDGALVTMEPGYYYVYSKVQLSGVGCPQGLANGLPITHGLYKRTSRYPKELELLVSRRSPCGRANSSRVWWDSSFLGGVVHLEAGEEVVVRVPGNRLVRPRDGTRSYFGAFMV
Test: ELISA, His-musLIGHT coated
measuredProperty: binding result

# binder, measuredProperty, recordedResult
records = [
    ("hum_LT-m58-5 (antibody, human IgG4, V domains shown, humanized from LT-m58) VH: QVQLVQSGAEVKKPGASVKVSCKASGYTFIDHIMNWVRKAPGQGLEWIGRIYPVSGETNYNQKFMGRVTFTVDRSTSTVYMELSSLRSEDTAVYYCGRGSYYWNAMDYWGQGTLVTVSS VL: EIVMTQSPATLSVSPGERATLSCKASQSVDFDGESYMNWYQQKPGQAPRLLIYSASNLESGIPARFSGSGSGTEFTLTISSLQSEDFAVYYCQQSIEDPWTFGQGTKVEIK", "binding result", "no binding"),
    ("LT-m55 (antibody, human IgG4, V domains shown) VH: EVQLQQSGAELVKPGASVKLSCKASGYTFATYYMYWVKQRPGQGLEWIGEINPTNGGTIFNEKFKTKATLTVDKSSSTAYMQLSSLTSEDSAVYYCARGNWPYWSFDVWGAGTSVTVSS VL: DIVLTQSPASLAVSLGQRATISCKASQSVDFDGDNYMNWYQQKPGQPPKLLIYAASNLDSGIPARFSASGSGTDFTLNIHPVEEEDAATYYCQQSIEDPWTFGGGTKLEIK", "binding result", "no binding"),
]

# credit: patent EP4596580A1
